# ASSAYED TARGET: T1, Biotinylated Human ACE2, His, Avitag protein (ACROBiosystems, AC2-H82E6) (human, UniProt Q9BYF1 18-740)
# T1 construct: also called biotinylated ACE2; ACE2 protein; not shown: His tag and Avitag
# T1 sequence (Q9BYF1 18-740 limits assumed): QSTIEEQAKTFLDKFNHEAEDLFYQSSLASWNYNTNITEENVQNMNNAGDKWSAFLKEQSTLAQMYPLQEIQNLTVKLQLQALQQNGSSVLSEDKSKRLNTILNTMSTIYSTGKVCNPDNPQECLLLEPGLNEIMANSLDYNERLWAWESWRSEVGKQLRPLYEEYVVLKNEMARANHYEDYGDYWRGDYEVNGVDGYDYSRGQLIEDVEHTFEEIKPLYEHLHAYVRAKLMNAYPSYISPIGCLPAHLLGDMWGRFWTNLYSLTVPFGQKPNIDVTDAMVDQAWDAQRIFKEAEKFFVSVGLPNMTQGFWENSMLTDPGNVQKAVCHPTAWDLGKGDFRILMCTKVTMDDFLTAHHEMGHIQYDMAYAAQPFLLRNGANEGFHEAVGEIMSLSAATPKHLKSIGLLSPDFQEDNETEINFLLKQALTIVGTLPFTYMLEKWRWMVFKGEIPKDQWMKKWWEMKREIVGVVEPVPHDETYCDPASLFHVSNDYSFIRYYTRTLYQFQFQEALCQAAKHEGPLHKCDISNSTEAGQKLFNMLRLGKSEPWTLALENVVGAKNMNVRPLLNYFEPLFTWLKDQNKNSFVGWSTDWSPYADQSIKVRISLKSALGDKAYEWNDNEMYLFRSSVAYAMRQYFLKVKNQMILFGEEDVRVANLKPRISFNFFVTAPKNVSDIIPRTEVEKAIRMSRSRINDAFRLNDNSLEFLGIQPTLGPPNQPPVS
# METHOD: SPR multiple cycle kinetics, ACE2 captured on CAP chip, peptide analyte 6.25-100 nM; geometric mean
pKd: −log10 of the molar value. Numbered stars: 1 amine (or outer) side, 2 acyl side, 3 side chain; on linkers, the order of the positions; unused ones are H or OH. Bridge positions count the residues as written; N and C are the ends. Square brackets hold non-standard residues; d marks the D form. Ends that are not written are not given here. TATA = O=C(CC[*:1])N1CN(C(=O)CC[*:2])CN(C(=O)CC[*:3])C1; hArg = N=C(N)NCCCC[C@H](N)C(=O)O
Would you please tag the item 1 when its pKd is 8 or above, and -1 when it is below?

Please review the following examples before continuing.
>  <BINDER>
ACNTVLCAWARANSYCA (linker 2-7-16 via TATA, bicyclic peptide, TATA scaffold) [BCY17161]

>  <LABEL>
1

$$$$
>  <BINDER>
Ac-CNAVLCSWA[hArg]TNSFC (linker 1-6-15 via TATA, bicyclic peptide, TATA scaffold) [BCY19025]

>  <LABEL>
-1

$$$$

Moving on to the next binder.
Q: Evaluate ACNAVLCSWARANSFCA (linker 2-7-16 via TATA, bicyclic peptide, TATA scaffold) [BCY15429] : pKd at minimum 8?
Ans: 1
